target.or.test.system: his-labeled human IL-13 (immunogen A) (human) (UniProt P35225)
protocol.summary: cell-based or functional assay
This listing pairs binders with measured TARC (pg/mL), A549 cells + IL-13 5 ng/mL + TNFα; antibody at 0.11 nM.
measured.metric: TARC (pg/mL), A549 cells + IL-13 5 ng/mL + TNFα; antibody at 0.11 nM

>>> data_value("70F10A10 (lead antibody, mouse hybridoma) (antibody, V domains shown) VH: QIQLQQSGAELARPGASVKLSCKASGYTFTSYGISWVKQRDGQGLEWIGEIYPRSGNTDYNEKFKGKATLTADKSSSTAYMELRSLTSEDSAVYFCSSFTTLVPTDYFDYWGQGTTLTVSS VL: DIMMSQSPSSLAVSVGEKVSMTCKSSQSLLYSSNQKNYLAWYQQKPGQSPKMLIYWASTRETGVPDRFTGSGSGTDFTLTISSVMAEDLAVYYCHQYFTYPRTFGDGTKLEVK")
1630
>>> data_value("28A2E11 (lead antibody, mouse hybridoma) (antibody, V domains shown, Mouse monoclonal antibody purified from hybridoma supernatant on Protein G) VH: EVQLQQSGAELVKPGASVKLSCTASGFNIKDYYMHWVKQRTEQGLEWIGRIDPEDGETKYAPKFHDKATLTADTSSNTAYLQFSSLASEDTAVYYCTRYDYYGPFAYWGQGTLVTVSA VL: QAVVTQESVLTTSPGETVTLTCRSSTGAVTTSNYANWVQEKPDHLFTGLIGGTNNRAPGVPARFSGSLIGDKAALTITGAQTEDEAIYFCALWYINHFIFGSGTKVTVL")
1360
>>> data_value("35E2C3 (lead antibody, mouse hybridoma) (antibody, V domains shown, Mouse monoclonal antibody purified from hybridoma supernatant on Protein G) VH: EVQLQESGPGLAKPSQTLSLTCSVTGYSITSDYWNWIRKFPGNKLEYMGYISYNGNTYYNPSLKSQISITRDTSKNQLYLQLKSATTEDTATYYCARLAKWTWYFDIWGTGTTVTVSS VL: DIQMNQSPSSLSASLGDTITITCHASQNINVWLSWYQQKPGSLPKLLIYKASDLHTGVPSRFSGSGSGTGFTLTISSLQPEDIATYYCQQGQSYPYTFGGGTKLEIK")
1550
